- Measured On: Cav2.3 (Homo sapiens, UniProt Q15878)
- Sequence (Q15878 1-747 limits assumed): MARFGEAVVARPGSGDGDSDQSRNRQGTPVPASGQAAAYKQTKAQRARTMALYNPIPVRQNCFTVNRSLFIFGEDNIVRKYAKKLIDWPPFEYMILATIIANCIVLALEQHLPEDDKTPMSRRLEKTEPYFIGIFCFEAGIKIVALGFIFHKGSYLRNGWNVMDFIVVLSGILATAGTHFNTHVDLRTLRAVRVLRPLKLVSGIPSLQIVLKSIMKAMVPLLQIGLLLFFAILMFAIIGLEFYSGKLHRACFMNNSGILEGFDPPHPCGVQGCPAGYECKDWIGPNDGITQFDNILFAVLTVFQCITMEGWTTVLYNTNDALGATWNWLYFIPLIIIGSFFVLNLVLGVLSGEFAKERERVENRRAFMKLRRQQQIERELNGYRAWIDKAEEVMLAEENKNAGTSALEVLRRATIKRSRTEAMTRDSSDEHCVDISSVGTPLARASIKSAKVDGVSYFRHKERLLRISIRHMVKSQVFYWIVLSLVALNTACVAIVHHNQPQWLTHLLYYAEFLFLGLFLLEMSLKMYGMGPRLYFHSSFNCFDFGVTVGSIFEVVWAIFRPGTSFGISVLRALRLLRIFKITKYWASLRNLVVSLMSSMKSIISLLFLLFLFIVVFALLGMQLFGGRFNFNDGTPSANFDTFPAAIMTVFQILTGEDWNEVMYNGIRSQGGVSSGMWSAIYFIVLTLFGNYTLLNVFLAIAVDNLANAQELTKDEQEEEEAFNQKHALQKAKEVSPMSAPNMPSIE
- Sequence (Q15878 1126-2313 limits assumed): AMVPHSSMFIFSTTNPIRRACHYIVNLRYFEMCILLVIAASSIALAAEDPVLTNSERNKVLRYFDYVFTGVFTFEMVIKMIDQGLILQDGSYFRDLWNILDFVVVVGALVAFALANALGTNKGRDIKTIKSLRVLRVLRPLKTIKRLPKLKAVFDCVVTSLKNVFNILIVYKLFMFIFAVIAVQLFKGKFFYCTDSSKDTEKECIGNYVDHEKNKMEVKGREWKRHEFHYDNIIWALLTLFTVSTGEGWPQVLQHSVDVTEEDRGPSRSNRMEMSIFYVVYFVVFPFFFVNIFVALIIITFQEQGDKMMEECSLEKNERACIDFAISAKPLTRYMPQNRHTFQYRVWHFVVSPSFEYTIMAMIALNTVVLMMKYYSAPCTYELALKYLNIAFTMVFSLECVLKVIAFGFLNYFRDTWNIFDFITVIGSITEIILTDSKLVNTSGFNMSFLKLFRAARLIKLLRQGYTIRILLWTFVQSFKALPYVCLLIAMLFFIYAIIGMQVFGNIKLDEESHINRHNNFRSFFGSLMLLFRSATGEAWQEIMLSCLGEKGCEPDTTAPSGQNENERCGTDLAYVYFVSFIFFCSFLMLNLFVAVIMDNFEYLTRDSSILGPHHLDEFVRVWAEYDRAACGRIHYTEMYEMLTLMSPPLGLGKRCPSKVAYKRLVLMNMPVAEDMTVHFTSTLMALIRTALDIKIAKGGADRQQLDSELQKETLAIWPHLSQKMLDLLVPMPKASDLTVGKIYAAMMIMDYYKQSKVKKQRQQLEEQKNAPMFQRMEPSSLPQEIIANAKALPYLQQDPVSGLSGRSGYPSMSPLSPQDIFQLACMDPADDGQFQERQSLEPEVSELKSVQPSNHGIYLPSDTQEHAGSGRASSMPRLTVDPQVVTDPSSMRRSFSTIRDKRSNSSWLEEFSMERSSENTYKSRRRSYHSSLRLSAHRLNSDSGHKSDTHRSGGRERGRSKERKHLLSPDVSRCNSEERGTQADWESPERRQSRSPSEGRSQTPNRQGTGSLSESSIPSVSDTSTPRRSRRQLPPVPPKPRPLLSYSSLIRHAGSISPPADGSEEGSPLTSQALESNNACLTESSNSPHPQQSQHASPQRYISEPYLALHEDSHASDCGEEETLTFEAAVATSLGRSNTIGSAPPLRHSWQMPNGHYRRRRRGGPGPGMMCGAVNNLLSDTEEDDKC
- Assay Procedure: Human Cav2.3 channel calcium-influx assay
- Assay type: cell-based
- Settings: HEK-293 T-Rex/Kir2.1/Cav2.3e-β4-α2δ1 cells, Fluo8 fluorescence, without pluronic acid; read-out: Cav2.3 (pIC50) (converted)
Readout Label: IC50 (µM)

Answered examples (5):
Compound	Measured On	IC50 (µM)
Cc1ccc(S(=O)(=O)N2CC3(CCC3)CC2C)s1 (single isomer, unassigned) [Example 78]	Cav2.3 (Homo sapiens, UniProt Q15878)	3.63
CCC1CC2(CCC2)CN1S(=O)(=O)c1cccs1 (single isomer, unassigned) [Example 70]	Cav2.3 (Homo sapiens, UniProt Q15878)	9.55
CCC1CC2(CCCC2)CN1S(=O)(=O)c1cccs1 (single isomer, unassigned) [Example 98]	Cav2.3 (Homo sapiens, UniProt Q15878)	14.5
CC1CC2(CCC2)CN1S(=O)(=O)c1ccc(C#N)s1 (single isomer, unassigned) [Example 10]	Cav2.3 (Homo sapiens, UniProt Q15878)	2.69
CC(C)C(=O)N1CCc2ccc(S(=O)(=O)N3CC4(CCC4)CC3C)cc2C1 (single isomer, unassigned) [Example 31]	Cav2.3 (Homo sapiens, UniProt Q15878)	0.646

[I] CC1CC2(CCC2)CN1S(=O)(=O)c1ncccn1 (centres unmarked)
[II] CC1CC2(CCC2)CN1S(=O)(=O)c1ccccc1 (single isomer, unassigned) [Example 47]
QUERY: Please indicate which item has the smaller measured IC50: I versus II I would appreciate it if you answered with the label of your choice.
RESULT: II
(II: 1.58 µM, I: 46.8 µM)

Every entry's value here was drawn from patent US20250101003A1.
